Cited source: patent US5631382A

Experiment: Wear life (T 1/2) of polymer plate in xenon fade meter, JIS L0843 and JIS B7754
Type: physicochemical
Conditions: time until color density decreases to one-half the initial value
MEASUREMENT NAME: T1/2 (h)
// note: answer is a bare numeric in h

Known T1/2 results, listed for orientation:
COMPOUND	RECORDED RESULT
Cn1c(Cl)cc2c1C1(C3CCCC1(Cl)CCC3)C1C(=O)N(C(F)(F)F)C(=O)C1=C2c1ccccc1 (stereo not shown)	100
N#CN1C(=O)C2=C(C3CC3)c3ccoc3C3(C4CC5CC(C4)CC3C5)C2C1=O (stereo not shown)	385
CC(=O)N1C(=O)C2=C(C3CC3)c3cc(C)sc3C3(C4CC5CC(C4)CC3C5)C2C1=O (stereo not shown)	140
COc1ccc(C2=C3C(=O)N(C(=O)c4ccccc4)C(=O)C3C3(c4oc5ccccc5c42)C2CC4CC3CC(C)(C4)C2)cc1 (stereo not shown)	110
CCOC(=O)N1C(=O)C2=C(C)c3c(sc4ccccc34)C3(C4CCCC3(OC)CCC4)C2C1=O (stereo not shown)	110

Memo: O=C1C2=C(C3CC3)c3ccsc3C3(C4CC5CC(C4)CC3C5)C2C(=O)N1C(=O)c1ccccc1 (stereo not shown) , reported T1/2: 135

Memo: CCC1=C2C(=O)N(C(=O)C(Cl)(Cl)Cl)C(=O)C2C2(c3sc4cc(OC)ccc4c31)C1CC3CC(Cl)(C1)CC2(Cl)C3 (stereo not shown) , reported T1/2: 100
